All values here come from paper PMC4017264.

Target: T1, UBXD1 PUB domain (aa 150–264) (UniProt Q9BZV1 150-264)
T1 construct: UBXD1, PUB domain, residues 150-264; also called minimal UBXD1 PUB domain
T1 sequence (looked up): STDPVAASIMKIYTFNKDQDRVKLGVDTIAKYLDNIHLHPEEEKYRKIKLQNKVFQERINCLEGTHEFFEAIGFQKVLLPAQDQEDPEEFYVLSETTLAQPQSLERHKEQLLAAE
Experiment: fluorescence polarisation; serially diluted PUB domains and HOIP variants mixed with an equal volume of 100 nM FITC-Ahx-labeled peptide; one-site binding model; triplicate
Conditions: both partners purified
No end group written: not given here. *: point of attachment. FITC = O=C1OC2(c3ccc(O)cc3Oc3cc(O)ccc32)c2ccc(NC(=S)*)cc21; Ahx = NCCCCCC(=O)O
quantityMeasured: Kd (µM)
State the answer as a number, implicitly in µM.

Answer with reported Kd of {FITC-Ahx}-TEDNDDDLYG (peptide, UniProt P55072 797-806, looked up, p97 (VCP), C-terminal residues 797-806; also called p97 peptide; fluorescent p97 PIM peptide) [FITC-Ahx-labeled p97 PIM peptide (aa 797–806)]
12
